The reported measurements were obtained from PubChem BioAssay (NCATS).

# assay remarks: Cell Viability - LYMP2-019 (AID 973);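 note: cells exposed to compound for 24 h at 37 °C; nearly all actives have a fitted effect of over 55% in size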
# test conditions: LYMP2-019 lymphoblastoid cell line viability; series mostly up to 92.2 µM
Records with an inconclusive call do not appear. The source made the active and inactive calls. Calls come from the whole dose curve; as a rule, active = well fitted cell-killing curve with a large enough effect; inconclusive = small, poorly fitted or top-dose-only effect; inactive = flat fitted curve, though single readings scatter.
Write down the outcome that applies. Available outcomes: true (1) for active, false (0) for inactive

Problem: Entry `CN1CSC(=S)N(C)C1` : call = ?
Result: true (1)

Problem: Entry c1ccc(C2CO2)cc1 (stereo unspecified) : call = ?
Result: false (0)

====

# measured target: Cytochrome P450 2D6 (Homo sapiens)
# assay remarks: qHTS Assay for Inhibitors and Substrates of Cytochrome P450 2D6 (AID 891); note: nearly all actives have a fitted effect of over 60% in size; note: potency is the fitted concentration of half-maximal effect
# test conditions: recombinant CYP2D6, luciferin-ME EGE luminescence; series mostly up to 11.4 µM
Results filed as inconclusive are left out. Active and inactive are the calls of the source. Calls follow the shape of the dose curve; as a rule, active = well fitted inhibition curve with a large enough effect; inconclusive = small, poorly fitted or top-dose-only effect; inactive = no such curve, though single readings can be large or run the other way.
endpoint: Potency

Example results:
CN[C@H](Cc1ccccc1)c1cccc(OC)c1O = 39.8 nM (active)
CCC1=C(C[C@H]2NCCc3cc(OC)c(OC)cc32)C[C@H]2c3ccccc3CCN2C1 = 316 nM (active)
CC(C)c1ccc(C(O)(C(=O)O)c2ccc(C(C)C)cc2)cc1 = inactive
N=C(N)n1cc(/C=N\N=C(N)N)cn1 = inactive
CC(C)[C@@]1(NC(=O)[C@@H]2C=C3c4cccc5[nH]cc(c45)C[C@@H]3N(C)C2)O[C@]2(O)[C@H]3CCCN3C(=O)[C@H](Cc3ccccc3)N2C1=O = inactive

Now examine the next entry.
Record `CC(=O)c1c(O)c(C)c(O)c(Cc2c(O)c3c(c(C(=O)/C=C\c4ccccc4)c2O)OC(C)(C)C=C3)c1O` . Reported Potency: inactive

====

# assay remarks: qHTS assay for cell viability of the p53RE-bla HCT-116 cell line (AID 743292); note: nearly all actives have a fitted effect of over 55% in size
# test conditions: p53RE-bla HCT-116 viability, ATP luminescence, 16 h; series mostly up to 95 µM
Records with an inconclusive call do not appear. Active and inactive are the calls of the source. Calls follow the shape of the dose curve; as a rule, active = well fitted cell-killing curve with a large enough effect; inconclusive = small, poorly fitted or top-dose-only effect, or effect the other way; inactive = flat fitted curve, though single readings scatter.
endpoint: outcome

O=C(O)c1cc(Cl)ccc1Cl = inactive
Nc1ccc(Cc2ccc(N)cc2)cc1 = inactive
CCCN(CCC)c1c([N+](=O)[O-])cc(C(F)(F)F)cc1[N+](=O)[O-] = inactive
N#CC(Br)Br = inactive
Cc1ccc(N)c(N)c1 = inactive

Record `CCCCCC[N+](=O)[O-]` . Reported outcome: inactive

Record `ClCC(Cl)CCl` . Reported outcome: inactive

Record `CN(C)C(=O)Cl` . Reported outcome: inactive

Record `N#CCc1ccccc1` . Reported outcome: inactive

====

# assay remarks: Cell Viability - LYMP2-017 (AID 972);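 note: cells exposed to compound for 24 hours at 37 °C; nearly all actives have a fitted effect of over 55% in size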
# test conditions: LYMP2-017 lymphoblastoid cell viability; series mostly up to 92.2 µM
Inconclusive results are not listed. Calls of active or inactive are those of the source. Calls follow the shape of the dose curve; as a rule, active = well fitted cell-killing curve with a large enough effect; inconclusive = small, poorly fitted or top-dose-only effect; inactive = flat fitted curve, though single readings scatter.
Write down the outcome that applies. Available outcomes: active, inactive

CC(C)CON=O = inactive
CC(C)[C@]12CC(=O)[C@H](C)[C@H]1C2 = inactive

Problem: Entry `Cc1cc(-c2cc(C)c(N)c(C)c2)cc(C)c1N` : call = ?
Result: inactive

Problem: Entry `O=C(O)c1cccc(Cl)c1` : call = ?
Result: inactive

Problem: Entry `BrCCc1ccccc1` : call = ?
Result: inactive

Problem: Entry `ClCCOCCCl` : call = ?
Result: inactive

Problem: Entry C=CC(=O)OCC(CC)CCCC (stereo not given) : call = ?
Result: inactive

Problem: Entry `O=[N+]([O-])c1ccc(O)c([N+](=O)[O-])c1` : call = ?
Result: inactive

Problem: Entry `N#CCc1ccccc1` : call = ?
Result: inactive

Problem: Entry `Nc1ccc(Cc2ccc(N)cc2)cc1` : call = ?
Result: inactive

Problem: Entry `O=[N+]([O-])c1cccc(O)c1` : call = ?
Result: inactive

Problem: Entry `Nc1ccc(-c2ccc(N)c(Cl)c2)cc1Cl` : call = ?
Result: inactive

Problem: Entry `O=P(OCCCl)(OCCCl)OCCCl` : call = ?
Result: inactive

Problem: Entry `BrC(Br)Br` : call = ?
Result: inactive

Problem: Entry `ClP(Cl)(Cl)(Cl)Cl` : call = ?
Result: inactive

Problem: Entry `ClC(Cl)(Cl)C(Cl)(Cl)Cl` : call = ?
Result: inactive

Problem: Entry `CCCCCC[N+](=O)[O-]` : call = ?
Result: inactive

Problem: Entry `N#CCCCCC#N` : call = ?
Result: inactive

Problem: Entry `Clc1ccc(C(Cl)(Cl)Cl)cc1Cl` : call = ?
Result: inactive

Problem: Entry `Nc1c(Br)cc([N+](=O)[O-])cc1[N+](=O)[O-]` : call = ?
Result: inactive

Problem: Entry `CC(C)OC(=O)Cc1ccccc1` : call = ?
Result: inactive
